Assay: amyloid nucleation score (Sup35N fusion, yeast selection) (log enrichment); library NNK3; higher = more nucleation; inactive = no reads after selection;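 also: zero at mode of non-aggregating sequences after 7 days selection at 30°C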
Measured quantity: amyloid nucleation score

Use the examples below as a reference point.
- AMNFYI: inactive
- RADFLPVKNVMRFRCEFWKR: inactive
- KMRSSVYFLDYNWNKTLPCL: -0.541
- YYYLKVHNLVSYVNAFVR: inactive

// each listed substance needs a value for amyloid nucleation score
1. CQRGTVADAPYLQRRLGLLY
2. YVFKMWLGPSSLIEFDLKRH
3. SDCGDFRLMVFQKSRRDSWN
4. ASLRYYGMAVVSSVYKMVVV
5. DQDKLFSEIRAMKFCCSFPP
6. KLASLFNYCSERKN
7. MFLFFHVFKDFQIHRDLQDW
8. IWWVSK

[reply]
1. inactive
2. 2.88
3. inactive
4. inactive
5. inactive
6. inactive
7. 0.08
8. inactive

// each listed substance needs a value for amyloid nucleation score
1. LWPAAQLLLKRE
2. KPISRRGWPRPKAGRNEPPR
3. GFSNITMCLA
4. MRTRGQTFTWGHYGCLLIDE
5. IKNMHRLDFR
6. NEVVQSLTRSIFRRYSKSAM

[reply]
1. inactive
2. inactive
3. inactive
4. inactive
5. -0.501
6. 0.129

[ask] Determine from records and report amyloid nucleation score for `DGCSRVMFNASGAMRRKVAN`
[reply] inactive
